Recorded growth values for a group of compounds are listed next.
tested on: OVCAR-4 ovarian; assay: NCI-60 one-dose screen, 48 h (100 = growth as untreated, 0 = no growth, -100 = all killed); settings: 10 µM unless noted
Compounds without any hit were thinned out: in the full panel of roughly 83,000, 20% have a hit.

- MOL: "CCC(=O)OCc1cccc(OC)c1"
  growth [%]: 94.6
- MOL: "COc1cc(-c2cnc3nonc3n2)c(OC)c2c1OCO2"
  growth [%]: 75.3
- MOL: "CCOC(=O)/C=C/C(=O)[C@H](CC(C)C)NC(=O)[C@H](Cc1ccccc1)NC(=O)OCc1ccccc1"
  growth [%]: 91.9
- MOL: "CC1=C(NCCN2CCCC2)C(=O)c2c(OCc3ccc(C(F)(F)F)cc3)cccc2C1=O"
  growth [%]: 84.7
- MOL: "C=C1C(=O)O[C@H]2[C@H]1CC/C(Cn1cc(Cn3ccc4cc(Cl)ccc43)nn1)=C\\CC[C@@]1(C)O[C@@H]21"
  growth [%]: 14.3
- MOL: "Cc1ccccc1CCO"
  growth [%]: 106

* * *

Tested on: T-47D breast
Experiment: NCI-60 one-dose screen, 48 h (100 = growth as untreated, 0 = no growth, -100 = all killed)
Details: 10 µM unless noted
Protocol: Growth inhibition of the T-47D human tumor cell line is measured as a screen for anti-cancer activity. Cells are grown in 96 well plates and exposed to the test compound for 48 hours. Compounds are tested at a single concentration, which is 10^-5 M for most compounds. The reported endpoint is percent growth (GI% or GIPRCNT), where numbers from 0 - 100% represent growth inhibition, and numbers from -100% - 0 represent cell death. For example, a value of 40 represents 60% growth inhibition. […]
The panel holds about 83,000 compounds, 20% with a hit somewhere; the sample as a whole holds those more often.
OBSERVATION_TYPE: growth (%)

- MOLECULE: "CSc1nc2sc3c(c2c(=O)n1-c1ccc(C(C)C)cc1)CCC(=O)C3"
  SCALE_UNIT: "%"
  ASSAY_VALUE: -48.3
- MOLECULE: "COc1ccc(-c2cc(/C=C3\\C(=O)Nc4ccc(Cl)cc43)[nH]n2)cc1"
  SCALE_UNIT: "%"
  ASSAY_VALUE: 47.4
- MOLECULE: "COc1cc(/C=N\\NC(=O)CN2CCN(c3cc4c(cc3F)c(=O)c(C(=O)N/N=C/c3ccc(O)c(OC)c3)cn4C3CC3)CC2)ccc1O"
  SCALE_UNIT: "%"
  ASSAY_VALUE: -1.62
- MOLECULE: "CCNS(=O)(=O)c1ncnc2nc[nH]c12"
  SCALE_UNIT: "%"
  ASSAY_VALUE: 104
- MOLECULE: "Nc1cc(-c2nc3sccn3c2-c2ccnc(NCCCNS(=O)(=O)c3ccc(F)cc3)n2)ccc1F"
  SCALE_UNIT: "%"
  ASSAY_VALUE: 15.4
- MOLECULE: "CCCC(=O)Oc1ccc(/C(=C(/CC)Cc2ccccc2)c2ccc(OCCN3CCCC3)cc2)cc1"
  SCALE_UNIT: "%"
  ASSAY_VALUE: 48.9
- MOLECULE: "Clc1cccc(Nc2nc(Nc3cnc4ccccc4c3)c3[nH]cnc3n2)c1"
  SCALE_UNIT: "%"
  ASSAY_VALUE: 53.7
- MOLECULE: "C[C@@H]1CCC2=C(CCC[C@]2(C)C(=O)O)[C@@]1(C)CCc1ccoc1"
  SCALE_UNIT: "%"
  ASSAY_VALUE: 94.9
- MOLECULE: "O=C(O)C(O)C(O)C(=O)O.[NH-]C1CCCCC1[NH-].[Pt+2] (stereo not given)"
  SCALE_UNIT: "%"
  ASSAY_VALUE: 105
- MOLECULE: "O=C1Nc2c(ccc(Cl)c2Cl)/C1=C/c1cc(Br)c(O)c(Br)c1"
  SCALE_UNIT: "%"
  ASSAY_VALUE: 54.8

* * *

system: OVCAR-3 ovarian; assay: NCI-60 one-dose screen, 48 h (100 = growth as untreated, 0 = no growth, -100 = all killed); details: 10 µM unless noted
Compounds without any hit were thinned out: in the full panel of roughly 83,000, 20% have a hit.
Listed here: items and their measured growth.

- COMPOUND: "O=C1Nc2ccccc2/C1=C/C(=N/c1nnc(-c2ccccc2)s1)c1ccccc1"
  STUDY_SYSTEM: "OVCAR-3 ovarian"
  SCALE_UNIT: "%"
  growth: -20.2
- COMPOUND: "NC1=CSC2=N/C(=C\\c3ccc(Cl)cc3)C(=O)N12"
  STUDY_SYSTEM: "OVCAR-3 ovarian"
  SCALE_UNIT: "%"
  growth: 71.6
- COMPOUND: "C=C1CCC2C3(C)COC(C)(C)OC3CCC2(C)C1C/C=C1/C(=O)OCC1OC(C)=O (centres undefined)"
  STUDY_SYSTEM: "OVCAR-3 ovarian"
  SCALE_UNIT: "%"
  growth: -9.88
- COMPOUND: "COc1ccc(S(=O)(=O)NCCNc2nccc(-c3c(-c4cccc(N)c4)nc4sccn34)n2)cc1"
  STUDY_SYSTEM: "OVCAR-3 ovarian"
  SCALE_UNIT: "%"
  growth: 100
- COMPOUND: "Cc1[nH]n(-c2ccccc2)c2nc3nncc3c(-c3ccc(Cl)cc3)c12"
  STUDY_SYSTEM: "OVCAR-3 ovarian"
  SCALE_UNIT: "%"
  growth: 121
- COMPOUND: "Cc1csc2ccc(Cl)cc12"
  STUDY_SYSTEM: "OVCAR-3 ovarian"
  SCALE_UNIT: "%"
  growth: 111
- COMPOUND: "C=C1CC[C@@H]2[C@](C)(COC(C)=O)[C@H](OC(C)=O)CC[C@@]2(C)[C@@H]1CC(Nc1ccc(S(=O)(=O)Nc2ccc(Cl)nn2)cc1)C1=CCOC1=O (some centres undefined)"
  STUDY_SYSTEM: "OVCAR-3 ovarian"
  SCALE_UNIT: "%"
  growth: -56.1
- COMPOUND: "O=C1CC(c2nc3ccccc3[nH]2)CN1C1CCCCC1 (centres undefined)"
  STUDY_SYSTEM: "OVCAR-3 ovarian"
  SCALE_UNIT: "%"
  growth: 110
- COMPOUND: "COC(=O)C12C3C(=O)N(c4ccc(OC)cc4)C(=O)C3C(c3cn(-c4ccccc4)nc3C)N1[C@H](c1cn(-c3ccccc3)nc1C)[C@@H]1C(=O)N(c3ccc(OC)cc3)C(=O)[C@@H]12 (some centres undefined)"
  STUDY_SYSTEM: "OVCAR-3 ovarian"
  SCALE_UNIT: "%"
  growth: 104

* * *

Test system: CCRF-CEM leukemia
Test: NCI-60 one-dose screen, 48 h (100 = growth as untreated, 0 = no growth, -100 = all killed)
Conditions: 10 µM unless noted
Description: Growth inhibition of the CCRF-CEM human tumor cell line is measured as a screen for anti-cancer activity. Cells are grown in 96 well plates and exposed to the test compound for 48 hours. Compounds are tested at a single concentration, which is 10^-5 M for most compounds. The reported endpoint is percent growth (GI% or GIPRCNT), where numbers from 0 - 100% represent growth inhibition, and numbers from -100% - 0 represent cell death. For example, a value of 40 represents 60% growth inhibition. […]
About 83,000 compounds went through this panel and 20% of them were active in at least one assay; those are over-represented in the sample as a whole.

- COMPOUND: "C=C1CC[C@@H]2[C@](C)(COC(C)=O)[C@H](OC(C)=O)CC[C@@]2(C)[C@@H]1CC(Nc1ccc(S(=O)(=O)Nc2nc(C)cc(C)n2)cc1)C1=CCOC1=O (stereo not given in full)"
  STUDY_SYSTEM: "CCRF-CEM leukemia"
  growth (%): 2.96
- COMPOUND: "CCNS(=O)(=O)c1ncnc2nc[nH]c12"
  STUDY_SYSTEM: "CCRF-CEM leukemia"
  growth (%): 91.1
- COMPOUND: "C/C(=C(/c1ccc(O)cc1)c1ccc(OCCN(C)C)cc1)c1ccccc1"
  STUDY_SYSTEM: "CCRF-CEM leukemia"
  growth (%): 94.3
- COMPOUND: "Cn1c2c(Cl)c(Cl)ccc2c2ccn3c(=O)c4ccccc4nc3c21"
  STUDY_SYSTEM: "CCRF-CEM leukemia"
  growth (%): 80.8
- COMPOUND: "C=CC[N+]1(CC)CCN=C1CCCCCCCCCCCCCCCCC (stereo not given)"
  STUDY_SYSTEM: "CCRF-CEM leukemia"
  growth (%): -59.4
- COMPOUND: "CS(=O)(CCCCN=C=S)=NC(=O)c1c(F)c(F)c(F)c(F)c1F (stereo not given)"
  STUDY_SYSTEM: "CCRF-CEM leukemia"
  growth (%): 73.5
- COMPOUND: "COc1cc(-c2cc(-c3nc4ccc(Cl)cc4[nH]3)[nH]n2)cc(OC)c1OC"
  STUDY_SYSTEM: "CCRF-CEM leukemia"
  growth (%): 7.12
- COMPOUND: "N#Cc1c(N)nc(N)nc1Nc1ccc(Br)cc1"
  STUDY_SYSTEM: "CCRF-CEM leukemia"
  growth (%): 61.1
- COMPOUND: "COc1ccc(C2Nc3ccccc3-n3cccc32)cc1 (stereo not given)"
  STUDY_SYSTEM: "CCRF-CEM leukemia"
  growth (%): 104
- COMPOUND: "C=C1CCC2C3(C)COC(c4ccc(SC)cc4)OC3CCC2(C)C1C/C=C1/C(=O)OCC1O (stereo not given)"
  STUDY_SYSTEM: "CCRF-CEM leukemia"
  growth (%): 2.76
